Cited source for all entries: ChEMBL document CHEMBL1151901

# IC50 listing for each entry below
target: Glutamate NMDA receptor; Grin1/Grin2a (Rattus norvegicus, UniProt P35439+Q00959); test: Activity at rat NR1/NR2A receptor expressed in Xenopus oocytes assessed as inhibition of glycine-induced electrophysiological response
Sequence (Q00959 whole entry, other chains not shown): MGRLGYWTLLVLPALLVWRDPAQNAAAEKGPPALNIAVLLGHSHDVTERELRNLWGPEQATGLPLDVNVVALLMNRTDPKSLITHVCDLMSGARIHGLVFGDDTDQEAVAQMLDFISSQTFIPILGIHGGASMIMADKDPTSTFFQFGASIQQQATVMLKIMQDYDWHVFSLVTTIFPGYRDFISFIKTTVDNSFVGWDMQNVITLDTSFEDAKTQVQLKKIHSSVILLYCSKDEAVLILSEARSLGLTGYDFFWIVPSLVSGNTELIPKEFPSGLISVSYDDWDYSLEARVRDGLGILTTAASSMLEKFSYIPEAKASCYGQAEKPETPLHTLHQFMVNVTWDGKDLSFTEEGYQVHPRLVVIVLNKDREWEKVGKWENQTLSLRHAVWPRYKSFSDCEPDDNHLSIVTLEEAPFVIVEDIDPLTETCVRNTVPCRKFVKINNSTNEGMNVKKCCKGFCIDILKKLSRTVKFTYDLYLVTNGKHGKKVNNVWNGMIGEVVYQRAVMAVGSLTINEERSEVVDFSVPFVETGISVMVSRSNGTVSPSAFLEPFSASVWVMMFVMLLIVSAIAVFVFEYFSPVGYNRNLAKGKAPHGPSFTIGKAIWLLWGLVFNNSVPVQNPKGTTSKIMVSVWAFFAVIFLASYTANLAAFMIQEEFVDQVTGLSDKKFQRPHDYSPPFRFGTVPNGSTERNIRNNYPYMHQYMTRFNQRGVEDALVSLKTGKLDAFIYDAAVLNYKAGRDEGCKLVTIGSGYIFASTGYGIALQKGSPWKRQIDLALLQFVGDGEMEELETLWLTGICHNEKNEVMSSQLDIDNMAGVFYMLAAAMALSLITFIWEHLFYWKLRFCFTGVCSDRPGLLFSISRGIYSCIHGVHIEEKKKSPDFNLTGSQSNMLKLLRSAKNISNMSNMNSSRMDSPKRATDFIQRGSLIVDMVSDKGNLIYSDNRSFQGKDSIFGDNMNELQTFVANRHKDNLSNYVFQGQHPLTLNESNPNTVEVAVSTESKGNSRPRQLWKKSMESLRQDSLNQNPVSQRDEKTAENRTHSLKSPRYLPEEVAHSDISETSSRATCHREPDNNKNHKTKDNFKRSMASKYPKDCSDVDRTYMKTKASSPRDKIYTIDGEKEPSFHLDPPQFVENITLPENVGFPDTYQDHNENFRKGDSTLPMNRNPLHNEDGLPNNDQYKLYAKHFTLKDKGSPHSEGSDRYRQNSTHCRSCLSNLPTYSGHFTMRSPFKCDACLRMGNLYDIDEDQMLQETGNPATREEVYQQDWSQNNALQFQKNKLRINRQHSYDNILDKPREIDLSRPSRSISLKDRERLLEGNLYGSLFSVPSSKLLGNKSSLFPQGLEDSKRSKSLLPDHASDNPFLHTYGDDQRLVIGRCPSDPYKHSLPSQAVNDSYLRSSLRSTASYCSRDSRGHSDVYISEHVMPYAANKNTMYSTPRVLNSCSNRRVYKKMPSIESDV
endpoint_name: IC50 (µM)

* NC[C@@H]1NC(=O)CNC1=O | 370
* C[C@H](N)CC(=O)NCC(=O)O | 28
* NCCCC(=O)NCC(=O)O | 65

* * *

target: Glutamate NMDA receptor; Grin1/Grin2a (Rattus norvegicus, UniProt P35439+Q00959); assay: Activity at rat NR1/NR2A receptor expressed in Xenopus oocytes assessed as inhibition of glycine-induced electrophysiological response
endpoint_name: Kd

* NC[C@@H]1NC(=O)CNC1=O | 50 µM
